Assayed System: T1, monomeric human CSF1R ectodomain protein (human, UniProt P07333 20-517)
T1 construct: also called biotinylated monomeric human CSF1R
Assay Method Text: SPR Biacore, IgG captured, monomeric CSF1R analyte

Binder: 29H09 (antibody, human IgG4, V domains shown, Library-derived clone, tested as human IgG4(S228P)/Ckappa IgG; framework residue limits counted on the grafts) VH: QVQLVQSGAEVKKPGSSVKVSCKASGYTFTSYYMIWVRQAPGQGLEWMGDINPYNGGANYAQKFQGRVTITADESTSTAYMELSSLRSEDTAVYYCAREGPYFSNLYVMDYWGQGTLVTVSS VL: EIVLTQSPATLSLSPGERATLSCRASQSVSYEGENYLNWYQQKPGQAPRLLIYAASNRATGIPARFSGSGSGTDFTLTISSLEPEDFAVYYCQLSNEDLLTFGGGTKVEIK
Kd, nM: 0.19
--
Binder: 30D02 (antibody, human IgG4, V domains shown, Library-derived clone, tested as human IgG4(S228P)/Ckappa IgG; framework residue limits counted on the grafts) VH: QVQLVQSGAEVKKPGSSVKVSCKASGYTFSSYYMIWVRQAPGQGLEWMGDINPYNGGTTYAQKFQGRVTITADESTSTAYMELSSLRSEDTAVYYCAREGPYFSNLYVMDYWGQGTLVTVSS VL: EIVLTQSPATLSLSPGERATLSCRASQSVEYQGENYLNWYQQKPGQAPRLLIYAASNRATGIPARFSGSGSGTDFTLTISSLEPEDFAVYYCQLSNQDLLTFGGGTKVEIK
Kd, nM: 0.48
--
Binder: humanized anti-CSF1R antibody 0301 (hu0301) (antibody, human IgG4, V domains shown, also called mAb-1) VH: QVQLVQSGAEVKKPGSSVKVSCKASGYTFTDNYMIWVRQAPGQGLEWMGDINPYNGGTTFNQKFKGRVTITADKSTSTAYMELSSLRSEDTAVYYCARESPYFSNLYVMDYWGQGTLVTVSS VL: EIVLTQSPATLSLSPGERATLSCKASQSVDYDGDNYMNWYQQKPGQAPRLLIYAASNLESGIPARFSGSGSGTDFTLTISSLEPEDFAVYYCHLSNEDLSTFGGGTKVEIK
Kd, nM: 0.21
--
Binder: 29B07 (antibody, human IgG4, V domains shown, Library-derived clone, tested as human IgG4(S228P)/Ckappa IgG; framework residue limits counted on the grafts) VH: QVQLVQSGAEVKKPGSSVKVSCKASGYTFTSYYIIWVRQAPGQGLEWMGDINPYNGGATYAQKFQGRVTITADESTSTAYMELSSLRSEDTAVYYCAREPPYFSNLYVMDYWGQGTLVTVSS VL: EIVLTQSPATLSLSPGERATLSCRASQSVEYEGDNYLNWYQQKPGQAPRLLIYAASNRATGIPARFSGSGSGTDFTLTISSLEPEDFAVYYCQLSNQDLLTFGGGTKVEIK
Kd, nM: 0.34
--
Binder: 29A03 (antibody, human IgG4, V domains shown, Library-derived clone, tested as human IgG4(S228P)/Ckappa IgG; framework residue limits counted on the grafts) VH: QVQLVQSGAEVKKPGSSVKVSCKASGYTFSSNYMIWVRQAPGQGLEWMGDINPYNGGATYNQKFQGRVTITADESTSTAYMELSSLRSEDTAVYYCAREPPYFSNLYVMDYWGQGTLVTVSS VL: EIVLTQSPATLSLSPGERATLSCRASQSVEYEGENYLNWYQQKPGQAPRLLIYAASNRATGIPARFSGSGSGTDFTLTISSLEPEDFAVYYCQLSNQDLLTFGGGTKVEIK
Kd, nM: 0.39
